Origin of the recorded values: patent US20160114035A1

measuredTarget: DRB5*0101
protocolDetails: binding to purified HLA
propertyLabel: IC50 (nM)

Example cases with answers are listed next.
AAAWFVAANTLHAAA [W4.N9.H12] | 22
AAAYFVAAFTLHAAA [Y4.F9.H12] | 18
AAAYFVAANTLHAAA [Y4.N9.H12] | 16
AAAKFVAAWTLKAAA [SEQ ID NO: 4] | 5.4
AAAHFVAAWTLHAAA [H4.H12] | 23
AAAFFVAANTLHAAA [F4.N9.H12] | 26

A. AAAYFVAAWTLHAAA [Y4.H12]
B. AAAFFVAANTLKADA [F4.N9.D14]
INPUT: Smaller IC50 value? Options are A and B Write down the label of the entry you select.
OUTPUT: B
(B: 4.4 nM, A: 15 nM)
